The measured values listed here are drawn from patent US20230357447A1.

Molecular target: T1, Anti-CD28 scFv (VH-linker 1-VL) (biotinylated (site not stated))
T1 construct: biotinylated and captured on neutravidin coated plates in the phage ELISA
T1 sequence (scFv, as listed by the source): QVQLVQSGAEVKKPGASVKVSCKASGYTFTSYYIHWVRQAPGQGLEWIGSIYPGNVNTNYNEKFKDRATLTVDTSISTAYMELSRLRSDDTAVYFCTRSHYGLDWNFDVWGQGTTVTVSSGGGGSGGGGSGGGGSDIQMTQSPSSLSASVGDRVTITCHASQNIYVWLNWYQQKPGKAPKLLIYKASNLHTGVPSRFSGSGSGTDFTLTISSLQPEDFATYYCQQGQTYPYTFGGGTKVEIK
Experiment: phage ELISA, captured biotinylated scFv; background signal 0.073
I'd appreciate it if you could supply Phage binding ELISA CD28 scFv signal values for the items below.
When you answer, write just the number.

Task: Output measured Phage binding ELISA CD28 scFv signal for this item: MDWCPRDSWHLCFA [Phage-59]
Result: 2.45

Task: Tell me Phage binding ELISA CD28 scFv signal reported for MDWCPRHRWVDCFY [Phage-57]
Result: 0.478

Task: Name the recorded Phage binding ELISA CD28 scFv signal of the binder listed here: MNWCPKDIWYLCFN [Phage-22]
Result: 2.62

Task: // fetch Phage binding ELISA CD28 scFv signal given entry MDWCPMHLWHQCFN [Phage-39]
Result: 2.56
